- system.name: T1, recombinant human VEGF165 (human, UniProt P15692-4 27-191, biotinylated in the competition assays)
- T1 construct: Bought protein; also called hVEGF165; rhVEGF165
- assay.comment: SPR Biacore, immobilised hVEGF165, two state reaction model
- Method: Samples are injected for 2 min and allowed to dissociate up to 20 min at a flow rate of 45 μl/min. In between sample injections, the chip surface is regenerated with 100 mM HCl. HBS-EP+(Hepes buffer pH7.4+EDTA) is used as running buffer. Binding curves are fitted using a Two State Reaction model by Biacore T100 Evaluation Software v2.0.1. ^{(a)}KD = kd1/kₐ₁ * (kd2/(kd2 + kₐ₂)) ^{(b)}Curves are fitted using a Two State Reaction model by Biacore T100 Evaluation Software v2.0.1
readout.type: kd2 (s⁻¹)

[[record]]
binder = "VEGFBII023 (VHH, not shown: small tags and cut ends, Bivalent anti-VEGF VHH; also called VEGFBII23B04-40GS-10E07) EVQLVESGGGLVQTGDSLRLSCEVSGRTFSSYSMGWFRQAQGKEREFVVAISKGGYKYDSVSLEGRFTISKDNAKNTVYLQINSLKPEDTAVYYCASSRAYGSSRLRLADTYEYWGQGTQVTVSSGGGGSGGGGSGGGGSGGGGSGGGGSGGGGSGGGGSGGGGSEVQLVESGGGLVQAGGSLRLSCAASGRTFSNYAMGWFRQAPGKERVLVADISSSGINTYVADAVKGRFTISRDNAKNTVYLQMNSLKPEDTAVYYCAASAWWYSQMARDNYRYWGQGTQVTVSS"
readout_type = "kd2"
numeric_value = 0.00027

[[record]]
binder = "VEGFBII025 (VHH, not shown: small tags and cut ends, Bivalent anti-VEGF VHH; also called VEGFBII10E07-40GS-23B04) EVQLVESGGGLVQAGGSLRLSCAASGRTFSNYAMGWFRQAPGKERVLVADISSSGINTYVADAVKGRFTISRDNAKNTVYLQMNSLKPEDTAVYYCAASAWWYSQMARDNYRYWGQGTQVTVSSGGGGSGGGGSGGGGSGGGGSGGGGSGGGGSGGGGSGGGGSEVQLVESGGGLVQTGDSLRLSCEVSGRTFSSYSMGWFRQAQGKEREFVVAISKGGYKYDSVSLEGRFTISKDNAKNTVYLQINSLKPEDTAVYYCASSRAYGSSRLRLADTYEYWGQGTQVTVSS"
readout_type = "kd2"
numeric_value = 0.00037


These entries and their values trace back to patent US20140120095A1.
